- Experiment Summary: Human HepG2 cell viability assay in 384 well format
- Type: toxicity, cell-based
- Set-up: dose 125 nL, time 70.5 hour; concentration not given beside the values
- Condition Context: HepG2 cells, read-out: Inhibition
Form field: cytotoxicity at 70.5 h (one value per entry).
Value Type: cytotoxicity at 70.5 h (%)

1. COCCN(C(=O)c1cc(C)no1)c1ccc(C#N)cc1 :: -8.51
2. CCn1cc(CN2CCC(c3nnc(CN(C)C)n3CC)CC2)cn1 :: 10.9
3. Cc1cccc(C2CCCCN2C(=O)CCCS(C)(=O)=O)c1C (stereo not drawn) :: -9.93
4. NC(=O)c1ccc(CNCC2CCN(CCO)CC2)cc1 :: -5.52
5. Cc1cc(-c2cnc(NCc3cccnc3)nc2C(C)(C)C)on1 :: -18.2
6. CS(=O)(=O)c1cccc(S(=O)(=O)NC(=O)CCC2CCCCC2)c1 :: -7.19
7. Cc1cnc(C(C)(C)NC(=O)NCc2ccc(C#N)cc2F)s1 :: -5.64
8. CC(C)NC(=O)N1CCN(S(C)(=O)=O)CC2(CNC(=O)C2)C1 (stereo not drawn) :: -17.9
9. Cc1nc(CN2CCCC(CCc3ccccc3C(F)(F)F)C2)no1 (stereo not drawn) :: -8.94
10. COCCC1COC2(CCN(C(=O)Cc3ccccc3)CC2)C1 (stereo not drawn) :: -13.5
11. CCC(C)C(=O)NCc1ccc(-n2cncn2)nc1 (stereo not drawn) :: -6.68
12. CCn1c(CC2CCN(C(=O)C3COCCO3)CC2)nn(C)c1=O (stereo not drawn) :: 42.7
13. N#CCCN(CC1CCOC1)Cn1ccc(-c2ccccc2)n1 (stereo not drawn) :: -0.616
14. O=C(NCC(O)COc1cccc(F)c1)c1ccoc1 (stereo not drawn) :: -13.2
15. c1ccc(CNC[C@H]2Cn3ccnc3CO2)cc1 :: 4.33
16. c1ccc(C(CC2CN(Cc3c[nH]cn3)CCO2)c2ccccc2)cc1 (stereo not drawn) :: -5.4
17. O=c1[nH]nc(CNc2ncc(Br)cn2)[nH]1 :: -2.47
18. COc1ccc(C)cc1-c1csc(N)c1C#N :: 13.2
19. FC(F)(F)c1cccc(OC2CCN(Cc3ncc[nH]3)CC2)c1 :: -0.255
20. CS(=O)(=O)NC[C@H]1Cn2c(-c3ccccc3)cnc2CO1 :: -7.36
21. CNC1CCN(C2CCN(c3ccc(-c4ccco4)cc3)CC2)CC1 :: 8.23
22. COCCCN(Cc1ccccn1)S(=O)(=O)N(C)C :: 26.3
23. CC(=O)N1C[C@H]2CCCN(c3ncc(C)cn3)[C@H]2C1 :: -11.8
24. O=C(c1ccoc1)N1CCc2ncc(Cn3cccn3)n2CC1 :: -7.98
25. CS(=O)(=O)NC1CCCN(C(=O)c2cccnc2)C1 (stereo not drawn) :: -8.57
26. Cc1nccn1-c1cc(CNC(=O)CCNC(=O)C2CCCC2)ccn1 :: 2.73
27. CCc1nc(CN(C)C2CCN(Cc3ccc(C#N)cc3F)C2)no1 (stereo not drawn) :: 14.4
28. Cc1cccc2nc(C(=O)N3CCCC[C@]4(C)NC(=O)CC[C@H]34)cn12 :: -0.96
29. COc1cccc2ccc(CN3CCN(c4ccncc4)CC3)nc12 :: -9.89
30. Cc1cn2cc(-c3nc4c([nH]3)CCCNC4=O)nc2s1 :: -10.3
31. COc1ccc(OCC(=O)n2nc(C)c(C)c2C)cc1 :: 3.85
32. COc1cccnc1NC(=O)COc1ccc(F)cc1F :: -6.39
33. Cc1ccccc1CN(C)Cc1nc2c(cnn2C)c(=O)[nH]1 :: -7.81
34. O=C(N1CCCC1)N1CCc2c(CNc3ncccn3)cncc2C1 :: -1.33
35. c1cc(COc2ccc(CNC3CCc4ncnn4C3)cc2)ccn1 (stereo not drawn) :: -2.99
36. COc1ccc(CNCCn2c(C)nc3ccccc32)cc1O :: -8.82
37. CC(Cn1ccnc1)NC(=O)NCCN1CCCCCC1=O (stereo not drawn) :: -4.74
38. CN(Cc1ccncn1)C(=O)CCC(=O)NC1CCCC1 :: -9.64
39. Cc1noc(-c2cnc(NC3CC3)nc2-c2ccco2)c1C :: -14.9
40. Cc1ccc(CN2CCCn3c(nc(Cn4ccnc4)cc3=O)C2)s1 :: 8.11
41. COCC1CC2(CCNCC2)CN1Cc1csc(C)n1 (stereo not drawn) :: -8.39
42. Nc1nccnc1C(=O)NCCCNc1ccc(C(F)(F)F)cn1 :: 2.59
43. Cc1nn(C)c(C)c1C1COCCN1C(=O)c1ccc(Cl)o1 (stereo not drawn) :: 10.5
44. CN(C)C(=O)NCC(=O)N1CCCC2(CCC(=O)N(CC3CC3)C2)C1 (stereo not drawn) :: -13.6
45. Cn1ccc(C(=O)Nc2nccn2Cc2ccccc2Cl)cc1=O :: -7.59
46. O=C(c1cc(-c2ccco2)nc2c(Cl)cccc12)N1C[C@H]2CNC[C@H]2C1 :: -6.09
47. O=C(CC1CN(Cc2ccccc2)CCO1)Nc1ccccc1F (stereo not drawn) :: -3.6
48. CN(C)C(=O)N1CC[C@@H](c2ccc3ccccc3c2)[C@H](O)C1 :: 6.36

----------
Form field: cytotoxicity at 70.5 h (one value per entry).
- Experiment Summary: Human HepG2 cell viability assay in 384 well format
- Type: toxicity, cell-based
- Set-up: dose 125 nL, time 70.5 hour; concentration not given beside the values
- Condition Context: HepG2 cells, read-out: Inhibition
Value Type: cytotoxicity at 70.5 h (%)

1) O=C(NCCC1CN(C2CCCC2)CCO1)c1c[nH]c(=O)[nH]c1=O (stereo unspecified) :: -12.3
2) Cc1ccc(N2CC[C@H]3OCC[C@@]3(C(=O)N3CCCC3)C2)nn1 :: -9.8
3) COc1cc(C)nc(N2CCN(C(=O)CSC)CC2)n1 :: -11.8
4) CCNC(=O)NCC1(CN2CCOCC2)CCCCC1 :: 0.842
5) CCn1nc(NC(=O)Cn2ccc(C(C)=O)n2)c2ccccc21 :: 26.9
6) CCC(C)NC(=O)Nc1ccc(CN2CCOC2=O)cc1 (stereo unspecified) :: 18.8
7) COCc1nc(C(=O)N2CCN(c3nccc(OC)n3)CC2)cs1 :: 14.1
8) Cc1nn(C)c(C)c1C1CCCN1CC(=O)NC(C1CC1)C1CC1 (stereo unspecified) :: -2.06
9) Cc1nc2c(c(N3CCCC(CO)C3)n1)CCN(Cc1ccco1)CC2 (stereo unspecified) :: 16.9
10) CN1C(=O)CC(c2cnn(C)c2)C12CCN(C(=O)c1cccn1C)CC2 (stereo unspecified) :: -13.1
11) CC(C)C(=O)N1CCC2(CC1)NC(=O)[C@H]1CN(Cc3cccnc3)C[C@H]12 :: 4.61

----------
Form field: TOP (one value per entry).
- Experiment Summary: Human HepG2 cell viability dose-response assay
- Assay type: toxicity, cell-based
Value Type: TOP

1) O=C(CN1CCc2sccc2C1)Nc1ccnc2ccnn12 :: 100
2) O=C(Nc1nccs1)c1csc(NC2CCCC2)n1 :: 100
3) Oc1cc(C2CCCN(Cc3cccs3)C2)nc(-c2ccccn2)n1 (stereo not given) :: 100
4) Cc1ccccc1CN1CCCC1c1cccc(Nc2nccs2)n1 (stereo not given) :: 100
5) Cl.Cn1ccnc1N1CCN(C(=O)Cc2ccc(F)cc2)CC1 :: 0
6) CN(CCC(F)(F)F)C(=O)C1CSCN1C(=O)C(C)(C)C (stereo not given) :: 0
7) Cl.Cl.Clc1cccc(C[C@@H]2NCCC[C@@H]2Nc2ccccc2)c1 :: 101.8
8) CCn1cc(CN(C)S(=O)(=O)c2ccc(Cl)cc2)cn1 :: 0
9) c1ccc(CCN2CCCC2c2cccc(Nc3nccs3)n2)cc1 (stereo not given) :: 100
10) CCc1ncc2c(n1)CN(Cc1ncc(C(C)(C)C)o1)CC2 :: 0
11) O=C(O)C(F)(F)F.O=C1COC2(CCN(CC3CCC3)CC2)CN1c1cncnc1 :: 0
12) CCCc1cc(=O)[nH]c(-n2nc(C3CC3)cc2N)n1 :: 0
13) Oc1cc(C2CCCCN2Cc2cccs2)nc(-c2ccccn2)n1 (stereo not given) :: 100
14) CC(C)Cc1ccc(S(=O)(=O)Nc2ccc(=O)n(C)c2)cc1 :: 0
15) c1ccc(OCC2CC3(CCN(CC4CCOCC4)CC3)CO2)nc1 (stereo not given) :: 0

----------
- Experiment Summary: Human HepG2 cell viability assay in 384 well format
- Type: toxicity, cell-based
- Set-up: dose 125 nL, time 70.5 hour; concentration not given beside the values
- Condition Context: HepG2 cells, read-out: Inhibition
Value Type: cytotoxicity at 70.5 h

1. Cc1ccc(CN2CCOC3(CCN(C(=O)C4CC=CC4)CC3)C2)cc1 :: -2.99%
2. Cc1cnn(CC2CN(CC(=O)N(C)Cc3cccs3)CCO2)c1 (stereo unspecified) :: -1.56%
3. CCC[C@H]1CN(C2CCOCC2)C[C@@H]1NC(=O)CCCn1ccnc1 :: -2.79%
4. CCn1c(CN(C)C)nnc1C1CCN(Cc2cccc(F)c2F)CC1 :: -1.68%
5. CN(C)C(=O)CCC[S+]([O-])Cc1ccc(Cl)c(Cl)c1 (stereo unspecified) :: -3.04%
6. Cc1ccc(CN(C)C(=O)CN2CCCCC2Cn2cncn2)o1 (stereo unspecified) :: 17.9%
7. CNC(=O)[C@@]12CCC3(CCN(S(C)(=O)=O)CC3)[C@@H]1CN(C(C)=O)C2 :: -0.353%
8. Cn1cnc(S(=O)(=O)NCC(O)c2ccc3c(c2)CCO3)c1 (stereo unspecified) :: -16.8%
9. CCc1nc(CN2CCCN(C(=O)c3cccn3C)CC2)cs1 :: 2.1%
10. CN(C)CC1CCCCN1C(=O)c1ccc(N2CCOCC2)cc1 (stereo unspecified) :: 0.118%
11. c1cnnc(N2CCCC2CNCc2noc(C3CC3)n2)c1 (stereo unspecified) :: 27.1%
